Biological target: T1, human glycophorin A in the red blood cell membrane (human, UniProt P02724 20-150)
T1 construct: whole, on cells; used for intact RBC, isolated RBC membranes and transfected cells; the assay field tells which; also called GPA; hGPA
T1 sequence (looked up): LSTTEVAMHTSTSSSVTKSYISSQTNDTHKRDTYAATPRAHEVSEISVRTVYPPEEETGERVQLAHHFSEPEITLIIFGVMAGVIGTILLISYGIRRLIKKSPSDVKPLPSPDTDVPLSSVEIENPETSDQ
Experiment: FACS, RBC Hu03
Label key: 1 means fluorescence intensity under 500; 0 means fluorescence intensity of 500 or more.

binder: Hu6C12-7 (antibody, V domains shown, IgG format; VH.1g + Vk.1) VH: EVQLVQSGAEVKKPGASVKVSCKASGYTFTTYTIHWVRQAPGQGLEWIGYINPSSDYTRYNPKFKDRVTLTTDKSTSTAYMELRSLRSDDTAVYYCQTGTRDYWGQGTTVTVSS VL: DIQLTQSPSFLSASVGDRVTITCSAASSVSYIYWYQQKPGKAPKLLIYSTSTLPSGVPSRFSGSGSGTEFTLTISSLQPEDFATYYCHQRNSFPFTFGQGTKLEIK
label-class: 0
//
binder: Hu6C12-18 (antibody, V domains shown, IgG format; VH.1a + Vk.1b) VH: EVQLVQSGAEVKKPGASVKVSCKASGYTFTTYTIHWVRQAPGQGLEWMGYINPSSDYTRYNPKFKDRVTMTTDTSTSTAYMELRSLRSDDTAVYYCQRGTRDYWGQGTTVTVSS VL: DIQLTQSPSFLSASVGDRVTITCSAASSVSYIYWFQQKPGKAPKLLIYSTSTLPSGVPSRFSGSGSGTEYTLTISSLQPEDFATYYCHQRNSFPFTFGQGTKLEIK
label-class: 1
//
binder: 6C12B8/H8 (antibody, V domains shown, mouse IgG1/k from hybridoma; also called 6C12 parental; TPP-3422) VH: RVQLQQSGAELARPGASVKMSCKASGYTFTTYTIHWVKQKTGQGLEWIGYINPSSDYTRYNPKFKDKATLTTDKSSSTAYMKLNSLASDDSAVYYCQTGTRDYWGQGTTLTVSS VL: QIVLTQSPPIMSASPGEKVTMTCSAASSVSYIYWFQQKPGTSPKLWIYSTSTLPSGVPTRFSGSGSGTSYSLTISRMEAEDAATYYCHQRNSFPFTFGSGTKLEIR
label-class: 0
//
binder: Hu6C12-14 (antibody, V domains shown, IgG format; VH.1e + Vk.1a) VH: EVQLVQSGAEVKKPGASVKVSCKASGYTFTTYTIHWVRQAPGQGLEWMGYINPSSDYTRYNPKFKDRVTLTTDTSTSTAYMELRSLRSDDTAVYYCATGTRDYWGQGTTVTVSS VL: DIQLTQSPSFLSASVGDRVTITCSAASSVSYIYWYQQKPGKAPKLLIYSTSTLPSGVPSRFSGSGSGTEYTLTISSLQPEDFATYYCHQRNSFPFTFGQGTKLEIK
label-class: 1
//
binder: Hu6C12-20 (antibody, V domains shown, IgG format; VH.1c + Vk.1b) VH: EVQLVQSGAEVKKPGASVKVSCKASGYTFTTYTIHWVRQAPGQGLEWMGYINPSSDYTRYNPKFKDRVTMTTDTSTSTAYMELRSLRSDDTAVYYCQTGTRDYWGQGTTVTVSS VL: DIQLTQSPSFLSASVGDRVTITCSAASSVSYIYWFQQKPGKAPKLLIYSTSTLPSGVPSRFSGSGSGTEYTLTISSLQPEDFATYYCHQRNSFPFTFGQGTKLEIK
label-class: 0
//
binder: Hu6C12-15 (antibody, V domains shown, IgG format; VH.1f + Vk.1a) VH: EVQLVQSGAEVKKPGASVKVSCKASGYTFTTYTIHWVRQAPGQGLEWMGYINPSSDYTRYNPKFKDRVTLTTDTSTSTAYMELRSLRSDDTAVYYCQTGTRDYWGQGTTVTVSS VL: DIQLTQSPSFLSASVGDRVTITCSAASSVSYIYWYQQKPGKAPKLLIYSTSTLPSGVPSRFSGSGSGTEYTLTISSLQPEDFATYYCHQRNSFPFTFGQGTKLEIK
label-class: 1
//
binder: Hu6C12-10 (antibody, V domains shown, IgG format; VH.1a + Vk.1a) VH: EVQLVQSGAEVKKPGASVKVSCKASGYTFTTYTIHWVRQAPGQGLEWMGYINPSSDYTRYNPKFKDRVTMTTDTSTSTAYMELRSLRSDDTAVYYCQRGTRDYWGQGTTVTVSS VL: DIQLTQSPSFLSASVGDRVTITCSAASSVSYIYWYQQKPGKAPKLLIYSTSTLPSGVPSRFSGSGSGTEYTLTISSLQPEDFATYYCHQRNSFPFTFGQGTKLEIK
label-class: 1
//
binder: Hu6C12-12 (antibody, V domains shown, IgG format; VH.1c + Vk.1a) VH: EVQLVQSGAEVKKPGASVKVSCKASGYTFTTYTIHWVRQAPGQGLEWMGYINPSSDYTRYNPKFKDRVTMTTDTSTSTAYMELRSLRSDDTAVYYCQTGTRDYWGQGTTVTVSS VL: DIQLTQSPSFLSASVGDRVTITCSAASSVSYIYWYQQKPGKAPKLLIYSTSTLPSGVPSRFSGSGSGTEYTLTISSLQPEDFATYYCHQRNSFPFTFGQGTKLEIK
label-class: 1
//
binder: Hu6C12-6 (antibody, V domains shown, IgG format; VH.1f + Vk.1) VH: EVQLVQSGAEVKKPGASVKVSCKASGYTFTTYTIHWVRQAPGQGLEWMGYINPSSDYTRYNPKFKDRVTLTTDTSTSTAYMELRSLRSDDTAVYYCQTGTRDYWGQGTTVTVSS VL: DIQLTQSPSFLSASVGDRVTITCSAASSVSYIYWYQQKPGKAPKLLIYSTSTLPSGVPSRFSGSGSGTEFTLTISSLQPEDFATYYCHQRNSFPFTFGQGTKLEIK
label-class: 0
//
binder: Hu6C12-9 (antibody, V domains shown, IgG format; VH.1 + Vk.1a) VH: EVQLVQSGAEVKKPGASVKVSCKASGYTFTTYTIHWVRQAPGQGLEWMGYINPSSDYTRYNPKFKDRVTMTTDTSTSTAYMELRSLRSDDTAVYYCARGTRDYWGQGTTVTVSS VL: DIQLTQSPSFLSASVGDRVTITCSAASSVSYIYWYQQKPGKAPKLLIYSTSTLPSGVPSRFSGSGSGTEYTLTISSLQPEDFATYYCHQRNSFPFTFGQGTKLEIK
label-class: 1
//
binder: Hu6C12-16 (antibody, V domains shown, IgG format; VH.1g + Vk.1a) VH: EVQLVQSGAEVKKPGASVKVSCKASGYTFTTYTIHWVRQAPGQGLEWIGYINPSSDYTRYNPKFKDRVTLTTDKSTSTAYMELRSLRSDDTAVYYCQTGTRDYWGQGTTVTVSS VL: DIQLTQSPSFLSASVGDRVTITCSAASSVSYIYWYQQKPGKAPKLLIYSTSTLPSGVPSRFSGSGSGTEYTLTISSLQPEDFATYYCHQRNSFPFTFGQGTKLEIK
label-class: 0
//
binder: Hu6C12-24 (antibody, V domains shown, IgG format; VH.1g + Vk.1b) VH: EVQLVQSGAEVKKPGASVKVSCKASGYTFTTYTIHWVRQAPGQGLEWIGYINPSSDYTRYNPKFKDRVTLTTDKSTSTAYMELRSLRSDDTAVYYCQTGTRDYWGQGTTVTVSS VL: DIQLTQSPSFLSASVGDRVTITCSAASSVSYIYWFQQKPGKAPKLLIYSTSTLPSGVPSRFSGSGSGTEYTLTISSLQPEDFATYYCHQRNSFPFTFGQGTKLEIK
label-class: 0
